# Test system: LXFL 529
# assayInfo: NCI tumour cell line growth inhibition, 48 h
Active and inactive are the calls of the source. Rule as the data show it: active = GI50 up to about 1.1 µM and inactive = higher.
Outcomes: active, inactive

* COC(=O)c1cc2c(s1)C(=O)c1ccccc1-2 | inactive
* CCOC(=O)C(=O)C=P(c1ccccc1)(c1ccccc1)c1ccccc1 | inactive
* O=C1CCC(=O)C(C(=O)CCC(=O)Nc2cccc(Cl)c2)C1 (stereo not drawn) | inactive
* Cc1c(C(=O)/C=C/c2cccc3ccccc23)[n+]([O-])c2ccccc2[n+]1[O-] | inactive
* O=C(OCc1ccccc1)N1N=NC2C3CC(OCc4ccccc4)(OCc4ccccc4)C(O3)C21 (stereo not drawn) | inactive
* C=C1C(=O)O[C@@H]2C[C@@]3(C)[C@H](O)CCC(=C)[C@@H]3C[C@H]12 | inactive
* CSc1nc2nc(C)c(C)nc2c(=O)[nH]1 | inactive
* COC(=O)C(C)Oc1ccc(O)cc1 (stereo not drawn) | inactive
* Cc1ccccc1N1C(=O)C2C=CC(n3[nH]c(=O)n(Cc4ccccc4)c3=O)CC2C1=O (stereo not drawn) | inactive
* O=C1NC2(CCCCC2)C2CCCCC(O)C12 (stereo not drawn) | inactive
* CC1OC(OCC2OC(Oc3c(-c4ccc(O)cc4)oc4cc(O)cc(O)c4c3=O)C(OC3OCC(O)(CO)C3O)C(O)C2O)C(O)C(O)C1O (stereo not drawn) | inactive
* N#C/C(=C\c1ccc(O)c(O)c1)C(=O)NC1CCC(CC2CCC(NC(=O)/C(C#N)=C/c3ccc(O)c(O)c3)CC2)CC1 (stereo not drawn) | active
* NCCNC(=O)c1cccc2cc3ccccc3nc12 | inactive
* CCOC(=O)CC[C@H](NC(=O)c1nc[nH]c1/N=N/N(C)C)C(=O)OCC | inactive
* C=CC(=O)C#CC#CC/C=C\CCCCCCC | inactive
* COc1cc(/C=C(\NC(=O)c2ccccc2)c2nc3cncnc3[nH]2)cc(OC)c1OC | inactive
* CNc1nc(N)cc(O)n1 | inactive
* CCC1=C(C(C)=O)[C@@H]2CCCCC(C(=O)OC)[C@@H]2C1=O (stereo partly drawn) | inactive
* C#CCN(Cc1ccc2nc(-c3ccccc3)c(Cl)nc2c1)c1cc(OC)c(OC)c(OC)c1 | inactive
* COc1cc([C@@H]2c3cc4c(cc3[C@@H](OC(=O)c3ccccc3)C3COC(=O)[C@@H]32)OCO4)cc(OC)c1O (stereo partly drawn) | active
* COc1ccc(C2NC3=C(CCCC3)N2)cc1 | inactive
* C[C@@]1(Cc2ccccc2)C(=O)N2[C@@H](CO)C(c3ccccc3)O[C@]2(C)c2ccccc21 (stereo partly drawn) | inactive
* O=C1C(=O)N(c2ccc(Cl)cc2)C(=O)/C(=N/c2cccc3c(=O)[nH][nH]c(=O)c23)C1c1nc2ccccc2o1 (stereo not drawn) | inactive
* CN(C)CC(/C(Cc1ccccc1)=N\NC(=O)c1ccncc1)c1ccccc1 (stereo not drawn) | inactive
* CCOC(=O)CC1COc2ccc3c(c21)OCO3 (stereo not drawn) | inactive
* O=C(/C=C/c1ccccc1O)c1ccc([N+](=O)[O-])cc1 | inactive
* CCCCCCCCCCC(O)CCCCCCC(=O)O (stereo not drawn) | inactive
* N#CC1(c2nc3ccccc3o2)C(=O)C(=O)N(C2C3CC4CC(C3)CC2C4)C(=O)C1=O (stereo not drawn) | inactive
